Where do these numbers come from? They come from patent US8197860B2.

Tested on: Caco-2 cell monolayer
Protocol Description: Tryptophan absorption assay (transport across Caco-2 cell monolayer)
Assay type: cell-based, human
Condition Parameters: compound 0.01 μM
Recorded Metric: Percentage (tryptophan transport, control = 100) (%)

CC(C)(O)[C@@H]1CC[C@](C)([C@H]2[C@@H](O)C[C@@]3(C)[C@@H]4C[C@H](O)[C@H]5C(C)(C)[C@@H](O[C@@H]6OC[C@@H](O)[C@H](O)[C@H]6O[C@@H]6O[C@H](CO)[C@@H](O)[C@H](O)[C@H]6O)CC[C@@]56C[C@@]46CC[C@]23C)O1 [AS3, astragaloside III]; 159.81
CC(=O)OC1C(O)COC(OC2CCC34CC35CCC3(C)C(C6(C)CCC(C(C)(C)O)O6)C(O)CC3(C)C5CC(OC3OC(CO)C(O)C(O)C3O)C4C2(C)C)C1OC(C)=O (centres unmarked) [AS1, astragaloside I]; 248.49
CC(=O)O[C@H]1[C@H](O[C@H]2CC[C@]34C[C@]35CC[C@]3(C)[C@@H]([C@@]6(C)CC[C@@H](C(C)(C)O)O6)[C@@H](O)C[C@@]3(C)[C@@H]5C[C@H](O[C@@H]3O[C@H](CO)[C@@H](O)[C@H](O)[C@H]3O)[C@H]4C2(C)C)OC[C@@H](O)[C@@H]1O [AS2, astragaloside II]; 115.07
CC(C)(O)[C@@H]1CC[C@](C)([C@H]2[C@@H](O)C[C@@]3(C)[C@@H]4C[C@H](O[C@@H]5O[C@H](CO)[C@@H](O)[C@H](O)[C@H]5O)[C@H]5C(C)(C)[C@@H](O[C@@H]6OC[C@@H](O)[C@H](O)[C@H]6O)CC[C@@]56C[C@@]46CC[C@]23C)O1 [AS4, astragaloside IV]; 113.29
CC(=O)O[C@@H]1[C@@H](O)[C@H](O[C@H]2CC[C@]34C[C@]35CC[C@]3(C)[C@@H]([C@@]6(C)CC[C@@H](C(C)(C)O)O6)[C@@H](O)C[C@@]3(C)[C@@H]5C[C@H](O[C@@H]3O[C@H](CO)[C@@H](O)[C@H](O)[C@H]3O)[C@H]4C2(C)C)OC[C@H]1O [IsoAS2, isoastragaloside II]; 145.38
CC(C)(O)C1CC[C@](C)(C2[C@@H](O)C[C@@]3(C)C4C[C@H](OC5OC(CO)C(O)C(O)C5O)C5C(C)(C)[C@@H](O)CCC56CC46CC[C@]23C)O1 (stereo partly drawn) [AA, cycloastragenol 6-O-β-D-gluco-pyranose]; 133.08
CC(=O)O[C@H]1[C@H](O[C@H]2CC[C@]34C[C@]35CC[C@]3(C)[C@@H]([C@@]6(C)CC[C@@H](C(C)(C)O)O6)[C@@H](O)C[C@@]3(C)[C@@H]5C[C@H](O[C@@H]3O[C@H](CO)[C@@H](O)[C@H](O)[C@H]3O)[C@H]4C2(C)C)OC[C@@H](OC(C)=O)[C@@H]1O [IsoAS1, isoastragaloside I]; 115.97
CC(C)(O)[C@@H]1CC[C@](C)([C@H]2[C@@H](O)C[C@@]3(C)[C@@H]4C[C@H](O[C@@H]5O[C@H](CO)[C@@H](O)[C@H](O)[C@H]5O)[C@H]5C(C)(C)[C@@H](O[C@@H]6OC[C@@H](O)[C@H](O)[C@H]6O[C@@H]6O[C@H](CO)[C@@H](O)[C@H](O)[C@H]6O)CC[C@@]56C[C@@]46CC[C@]23C)O1 [AS6, astragaloside VI]; 173.45
